From: paper PMC3986359

Listed next: entries and their corresponding IC50.
biological target: butyrylcholinesterase (horse-serum E.C 3.1.1.8) (Equus caballus); construct: butyrylcholinesterase (horse-serum E.C 3.1.1.8); purchased Sigma, Pakistan; host or cells: horse serum; test: biochemical; type: biochemical; conditions: butyrylthiocholine chloride substrate, DTNB, pH 8.0, 25°C, 412 nm; value ± SEM; read-out: BChE ± SEM (IC50)
Sequence (P81908 whole entry): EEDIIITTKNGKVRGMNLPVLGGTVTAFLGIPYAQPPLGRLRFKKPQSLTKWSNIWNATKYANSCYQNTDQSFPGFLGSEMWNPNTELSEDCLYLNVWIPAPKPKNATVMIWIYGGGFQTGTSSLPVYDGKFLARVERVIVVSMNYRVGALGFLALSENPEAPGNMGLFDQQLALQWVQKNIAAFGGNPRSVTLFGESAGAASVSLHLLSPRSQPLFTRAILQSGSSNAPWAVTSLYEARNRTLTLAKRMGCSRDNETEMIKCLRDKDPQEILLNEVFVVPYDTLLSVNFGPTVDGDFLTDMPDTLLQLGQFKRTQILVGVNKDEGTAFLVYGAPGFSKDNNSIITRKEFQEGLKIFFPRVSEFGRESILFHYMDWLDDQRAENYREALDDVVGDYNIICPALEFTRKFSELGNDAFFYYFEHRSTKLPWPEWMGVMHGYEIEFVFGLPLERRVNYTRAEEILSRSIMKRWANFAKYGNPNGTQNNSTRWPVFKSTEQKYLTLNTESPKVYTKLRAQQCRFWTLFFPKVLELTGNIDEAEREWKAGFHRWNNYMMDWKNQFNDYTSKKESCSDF
The reply should contain only the number, in µM.

In [3]: df
Out[3]:
                                   compound                            assayed_target  meas_value
0  CCC(CCC(C)CCOC(C)=O)COC(=O)c1ccccc1C(=O)OCC(CC)CCC(C)CCOC(C)=O (stereo not drawn)  butyrylcholinesterase (horse-serum E.C 3.1.1.8) (Equus caballus)        5.98

[ask] Bench note: what IC50 did CCOc1c(CC=C(C)C)cc(C(=O)OCC(C)(C)C)cc1CC=C(C)C show?
[reply] 14.8

[ask] Next compound up: CC(C)=CCc1cc(C(=O)OCC(C)(C)C)cc(CC=C(C)C)c1O
[reply] 9.84

----------
List of pIC50 values.
target: Acetylcholinesterase (EC 3.1.1.7) (Homo sapiens, UniProt P22303); construct: purchased Sigma, Pakistan; experiment: biochemical; type: biochemical; conditions: acetylthiocholine iodide substrate, DTNB, pH 8.0, 25°C, 412 nm; value ± SEM; read-out: AChE ± SEM (IC50)
Sequence (P22303 32-614): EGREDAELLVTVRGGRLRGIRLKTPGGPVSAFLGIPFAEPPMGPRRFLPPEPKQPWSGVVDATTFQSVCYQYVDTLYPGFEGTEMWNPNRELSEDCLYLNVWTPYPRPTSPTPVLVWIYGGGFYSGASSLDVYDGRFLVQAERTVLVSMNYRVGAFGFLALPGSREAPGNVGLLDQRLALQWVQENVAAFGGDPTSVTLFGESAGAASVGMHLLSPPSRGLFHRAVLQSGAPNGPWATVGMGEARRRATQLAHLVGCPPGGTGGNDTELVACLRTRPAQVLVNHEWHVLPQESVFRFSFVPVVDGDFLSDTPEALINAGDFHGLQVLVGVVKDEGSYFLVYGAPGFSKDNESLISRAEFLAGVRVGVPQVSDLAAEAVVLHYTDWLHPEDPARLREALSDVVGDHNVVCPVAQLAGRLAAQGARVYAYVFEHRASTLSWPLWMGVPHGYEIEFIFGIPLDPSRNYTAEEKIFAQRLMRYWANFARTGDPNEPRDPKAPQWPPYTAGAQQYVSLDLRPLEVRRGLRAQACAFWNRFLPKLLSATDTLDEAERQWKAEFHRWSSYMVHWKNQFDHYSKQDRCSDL
As a rule, pIC50 stands for the negative log10 of the concentration, concentration in M.

Answered cases to consult:
                                   molecule                            assayed_target  observation_type  meas_value
0  CCC(CCC(C)CCOC(C)=O)COC(=O)c1ccccc1C(=O)OCC(CC)CCC(C)CCOC(C)=O (stereo not shown)  Acetylcholinesterase (EC 3.1.1.7) (Homo sapiens, UniProt P22303)             pIC50        5.78
1  CCOc1c(CC=C(C)C)cc(C(=O)OCC(C)(C)C)cc1CC=C(C)C  Acetylcholinesterase (EC 3.1.1.7) (Homo sapiens, UniProt P22303)             pIC50        5.28

[ask] Item under review: CCCCCCCCOC(=O)c1ccccc1C(=O)OCCCCCCCC [Compound 2, dioctyl phthalate] . Reported pIC50?
[reply] 5.06

[ask] // query: CC(C)=CCc1cc(C(=O)OCC(C)(C)C)cc(CC=C(C)C)c1O
[reply] 5.46
